# STUDY SYSTEM: cathepsin L (Rattus norvegicus, UniProt P07154)
# Sequence (P07154 114-334): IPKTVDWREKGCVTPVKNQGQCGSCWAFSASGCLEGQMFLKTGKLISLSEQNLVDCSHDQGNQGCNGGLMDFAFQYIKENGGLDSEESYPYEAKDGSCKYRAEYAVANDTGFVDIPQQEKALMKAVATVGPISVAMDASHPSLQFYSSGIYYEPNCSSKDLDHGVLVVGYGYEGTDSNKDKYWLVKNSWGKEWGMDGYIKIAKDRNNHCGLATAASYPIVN
# ASSAY PROTOCOL: In vitro assay procedure for cathepsin L (recombinant rat cathepsin L, N-CBZ-Phe-Arg-AMC substrate)
# MEASUREMENT CONDITIONS: pH 5.0, 10 min incubation at room temperature
This section presents molecules with their documented IC50 values.
Number in nM, nothing else.

1) O=C(CCc1ccccc1)N[C@@H](CC1CCCCC1)C(=O)N[C@H]1C(=O)NC1Sc1ccccc1 (some centres unmarked); 16
2) CC(=O)O[C@@H]1NC(=O)[C@H]1NC(=O)[C@H](CC1CCCCC1)NC(=O)CCc1ccccc1; 2320

Provide value of IC50 for this record tested with cathepsin L (Rattus norvegicus, UniProt P07154): N[C@@H](Cc1ccc(O[C@H]2NC(=O)[C@H]2NC(=O)[C@H](CC2CCCCC2)NC(=O)CCc2ccccc2)cc1)C(=O)O 1800

What IC50 appears in the records for this molecule with cathepsin L (Rattus norvegicus, UniProt P07154)? O=C(C=Cc1ccncc1)N[C@@H](CC1CCCCC1)C(=O)N[C@@H]1C(=O)N[C@H]1Oc1ccccc1 400

State its IC50 on cathepsin L (Rattus norvegicus, UniProt P07154): Cc1cccc(O[C@@H]2NC(=O)[C@H]2NC(=O)[C@H](CC2CCCCC2)NC(=O)OCc2ccccc2)c1 83
